The reported measurements were obtained from PubChem BioAssay AID602396.

# System: Nuclear receptor subfamily 5 group A member 2 (Homo sapiens)
# Test Summary: LRH-1 (NR5A2) inverse agonists, primary screen, cell-based, luminescence, HEK293T, StAR-luciferase reporter (AID 602396);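 note: 0% = DMSO wells and 100% = reporter-only cells lacking LRH-1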
# Assay Setup: LRH-1 transfected, 24 h, at 3.6 µM, active compounds read high
Among all 360,000 compounds or so, about 460 (0.13%) were called active. Only a selection was taken, and actives are over-represented in it overall.
Measured Quantity: inhibition (%)
Unit % implied. Number only.

Request: Which inhibition is listed for CCS(=O)(=O)Nc1cc(C(=O)OC)ccc1C(=O)OC ?
Response: 7.66

Request: Which inhibition is listed for CCCCCCNC(=O)O[C@]12C[C@@H](C(=O)OC)[C@@H](C(=O)OC)C[C@@]1(O)CN(S(=O)(=O)c1ccc(C)cc1)C2 ?
Response: -18

Request: Which inhibition is listed for C=CCn1c(SCC(=O)c2c(N)n(C)c(=O)n(C)c2=O)nc2sc(CC)cc2c1=O ?
Response: -16.9

Request: Which inhibition is listed for NC(N)=N/N=C/c1ccc(OCc2ccc(Cl)cc2Cl)cc1 ?
Response: -0.41

Request: Which inhibition is listed for C=CCc1cc(S(=O)(=O)c2ccc(O)c(CC=C)c2)ccc1O ?
Response: 11.4

Request: Which inhibition is listed for COc1ccc(CCn2c(NN=C3CCCC3)nc3c2c(=O)[nH]c(=O)n3C)cc1 ?
Response: 14

Request: Which inhibition is listed for CCCCN(C=O)c1c(CC)nc2c(OCCC3CCCCC3)cccn12 ?
Response: -7.2

Request: Which inhibition is listed for C[n+]1cc(-c2ccccc2)oc1-c1ccccc1 ?
Response: -30.6

Request: Which inhibition is listed for Cc1ccsc1C(=O)OCC(=O)c1cc(C)n(CC2CCCO2)c1C (stereo unspecified) ?
Response: 80.7

Request: Which inhibition is listed for Cc1ccc(CNC(=O)C2CCCN2S(=O)(=O)c2ccc3c(c2)C(C)(C)C(=O)N3C)cc1 (stereo unspecified) ?
Response: 4.35

Request: Which inhibition is listed for Cc1ccc(-n2c(=O)cc(N3CCN(Cc4ccccc4)CC3)[nH]c2=O)cc1 ?
Response: 8.9

====

# System: Nuclear receptor subfamily 5 group A member 2 (Homo sapiens)
# Test Summary: LRH-1 (NR5A2) inverse agonists, primary screen, cell-based, luminescence, HEK293T, StAR-luciferase reporter (AID 602396);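 note: 0% = DMSO wells and 100% = reporter-only cells lacking LRH-1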
# Assay Setup: LRH-1 transfected, 24 h, at 3.6 µM, active compounds read high
The whole screen tested about 360,000 compounds, of which about 460 (0.13%) were called active. The list comes from a sample in which actives are over-represented; it also holds close analogues and randomly drawn compounds.
Measured Quantity: inhibition (%)
Unit % implied. Number only.

Request: Form entry - test system: Nuclear receptor subfamily 5 group A member 2 (Homo sapiens); read-out: inhibition; molecule: Cc1cc(Nc2ccc(C)c(C)c2)n2ncnc2n1
Response: 18.7

Request: Form entry - test system: Nuclear receptor subfamily 5 group A member 2 (Homo sapiens); read-out: inhibition; molecule: O=C(COC(=O)Cc1ccc(Br)cc1)Nc1c(F)c(F)c(F)c(F)c1F
Response: 1.54

Request: Form entry - test system: Nuclear receptor subfamily 5 group A member 2 (Homo sapiens); read-out: inhibition; molecule: O=C(Nc1cc(-c2ccccc2)nn1-c1ccccc1F)c1ccc([N+](=O)[O-])cc1
Response: -5.47

Request: Form entry - test system: Nuclear receptor subfamily 5 group A member 2 (Homo sapiens); read-out: inhibition; molecule: COc1ccc(OC)c(NC(=O)c2ccc3c(c2)C(=O)N(c2ccc(OC(C)=O)cc2)C3=O)c1
Response: 15.1

Request: Form entry - test system: Nuclear receptor subfamily 5 group A member 2 (Homo sapiens); read-out: inhibition; molecule: O=C(Nc1ccc2c(c1)OCCO2)C(c1ccc(F)cc1)N1CCCCC1 (stereo not given)
Response: 4.16
